Just for reference, ChEMBL document CHEMBL4251543 is where these values come from.

The following compounds are listed with their measured ED50 values.
- Test system: Rattus norvegicus
- testName: Immunosuppressive activity in po dosed Lewis rat assessed as reduction in blood lymphocytes after 24 hrs
- Assay type: functional

Observe how each entry below is paired with its result.
>>> measured("CCCCSc1nc2c(s1)-c1ccc([C@H]3CC[C@](N)(CO)C3)cc1CC2")
"2 mg/kg"
>>> measured("CCCCCc1nc2c(s1)-c1ccc([C@H]3CC[C@](N)(CO)C3)cc1CC2")
"0.5 mg/kg"
>>> measured("CCCCOCCOc1nc2c(s1)-c1ccc([C@H]3CC[C@](N)(CO)C3)cc1CC2")
"0.25 mg/kg"

Let us examine a further case.
Given the compound CCCCOc1nc2c(s1)-c1ccc([C@H]3CC[C@](N)(CO)C3)cc1CC2 , what is its reported ED50?
1 mg/kg
